Organism: Rattus norvegicus
Experiment: Open TG-GATES - Regimen: Daily Repeat
Format: toxicity, organism-based, Sprague-Dawley
Set-up: regimen Daily Repeat, gender Male, age 6 weeks
Assay context: in vivo, po, 300 mg/kg, […], tissue Plasma, route gavage, dose level Middle, time 7 day
I'd appreciate it if you could supply Ca values for the items below.
Unit mg/dL implied. Number only.

Query: Sample CCN1CCCC1CNC(=O)c1cc(S(N)(=O)=O)ccc1OC (centres undefined) [SULPIRIDE] — what was its Ca?
Reply: 11

Query: Reported Ca, molecule O=C(N[C@H](CO)[C@H](O)c1ccc([N+](=O)[O-])cc1)C(Cl)Cl : ____
Reply: 11.3

Query: For O=C(O)c1cccnc1 , what is its reported Ca?
Reply: 10.7

Query: Any idea what its Ca is? The molecule is CC(C)(S)[C@@H](N)C(=O)O
Reply: 10.8

---

Species: Rattus norvegicus
Experiment: Open TG-GATES - Regimen: Daily Repeat
Type: toxicity, organism-based, Sprague-Dawley
Design: regimen Daily Repeat, gender Male, age 6 weeks
Assay context: in vivo, po, 300 mg/kg, […], tissue Plasma, route gavage, dose level Middle, time 14 day
Observation type: Cl (meq/L)
Please state the figure in meq/L; there is no need to write the unit.

Query: Any idea what its Cl is? The compound is CC(C)(S)[C@@H](N)C(=O)O
Reply: 105

Query: Quick check: Cl of CCN1CCCC1CNC(=O)c1cc(S(N)(=O)=O)ccc1OC (centres undefined) [SULPIRIDE] ?
Reply: 103

Query: Find the recorded Cl belonging to O=C(N[C@H](CO)[C@H](O)c1ccc([N+](=O)[O-])cc1)C(Cl)Cl and report it.
Reply: 105.2

Query: I'd like to know its Cl. The compound in question is O=C(O)c1cccnc1
Reply: 104.4

---

Organism: Rattus norvegicus
Experiment: Open TG-GATES - Regimen: Daily Repeat
Type: toxicity, organism-based, Sprague-Dawley
Parameters: regimen Daily Repeat, gender Male, age 6 weeks
Assay context: in vivo, po, 1000 mg/kg, […], tissue Plasma, route gavage, dose level High, time 14 day
Assign Ca to each entry below.
# unit: mg/dL | format: bare number

Query: Item CC(C)(S)[C@@H](N)C(=O)O [PENICILLAMINE] has what recorded Ca?
Reply: 10.7

Query: What value of measured Ca is listed for O=C(O)c1cccnc1 [NIACIN] ?
Reply: 10.5

Query: Need Ca, item O=C(N[C@H](CO)[C@H](O)c1ccc([N+](=O)[O-])cc1)C(Cl)Cl [CHLORAMPHENICOL]
Reply: 11

Query: For the compound shown here, CCN1CCCC1CNC(=O)c1cc(S(N)(=O)=O)ccc1OC (centres undefined) [SULPIRIDE] , give the reported Ca.
Reply: 11

---

So I've got a bunch of compounds here, and I need their PT values.
Species: Rattus norvegicus
Experiment: Open TG-GATES - Regimen: Daily Repeat
Assay type: toxicity, organism-based, Sprague-Dawley
Parameters: regimen Daily Repeat, gender Male, age 6 weeks
Assay context: in vivo, po, 100 mg/kg, […], tissue Blood, route gavage, dose level Low, time 28 day
API: value field is a number in s; no unit string.

Query: For the compound CC(C)(S)[C@@H](N)C(=O)O , what PT is on record?
Reply: 14.1

Query: // lookup PT for CCN1CCCC1CNC(=O)c1cc(S(N)(=O)=O)ccc1OC (centres undefined) [SULPIRIDE]
Reply: 13

Query: Quick check: PT of O=C(N[C@H](CO)[C@H](O)c1ccc([N+](=O)[O-])cc1)C(Cl)Cl ?
Reply: 14.8

Query: Can you look up the measured PT of O=C(O)c1cccnc1 for me?
Reply: 16.5

---

Organism: Rattus norvegicus
Experiment: Open TG-GATES - Regimen: Daily Repeat
Format: toxicity, organism-based, Sprague-Dawley
Set-up: regimen Daily Repeat, gender Male, age 6 weeks
Assay context: in vivo, po, 0 mg/kg, […], tissue Plasma, route gavage, dose level Control, time 14 day
Observation type: Na (meq/L)
Kindly answer with a numeric value in meq/L, unit omitted.

Query: Can you share its Na? I mean this compound: CC(C)(S)[C@@H](N)C(=O)O
Reply: 143

Query: Tell me the measured Na of CCN1CCCC1CNC(=O)c1cc(S(N)(=O)=O)ccc1OC (stereo not given) [SULPIRIDE] , please.
Reply: 141.2

Query: Which Na value is on record for C[C@](N)(Cc1ccc(O)c(O)c1)C(=O)O ?
Reply: 142

Query: Value lookup for Na; key = CCc1oc2ccccc2c1C(=O)c1cc(I)c(O)c(I)c1
Reply: 140.6

Query: Reported Na, compound CC(C)C(=O)Nc1ccc([N+](=O)[O-])c(C(F)(F)F)c1 [FLUTAMIDE] : ____
Reply: 141.2

---

Please go through the items and note down their ALT.
Species on record: Rattus norvegicus
Experiment: Open TG-GATES - Regimen: Daily Repeat
Assay type: toxicity, organism-based, Sprague-Dawley
Parameters: regimen Daily Repeat, gender Male, age 6 weeks
Assay context: in vivo, po, 0 mg/kg, […], tissue Plasma, route gavage, dose level Control, time 7 day
Your answer should be a plain number; it is taken to be in IU/L.

Query: // query ALT value for entry CCN1CCCC1CNC(=O)c1cc(S(N)(=O)=O)ccc1OC (stereo not given) [SULPIRIDE]
Reply: 44.2

Query: # ALT lookup, item C[C@]12CCC(=O)C=C1CC[C@@H]1[C@@H]2CC[C@@]2(C)[C@H]1CC[C@]2(C)O
Reply: 41.2

Query: Can you look up the measured ALT of Oc1ncnc2[nH]ncc12 for me?
Reply: 26

Query: Please report the recorded ALT for CC(=N)S [THIOACETAMIDE] .
Reply: 27.4

Query: Entry CCc1oc2ccccc2c1C(=O)c1cc(I)c(O)c(I)c1 has what ALT?
Reply: 36

Query: // query ALT value for entry O=C(N[C@H](CO)[C@H](O)c1ccc([N+](=O)[O-])cc1)C(Cl)Cl
Reply: 44.4

Query: State the recorded ALT for this entry: C[C@](N)(Cc1ccc(O)c(O)c1)C(=O)O
Reply: 46.8

Query: I have this compound here, CC(C)C(=O)Nc1ccc([N+](=O)[O-])c(C(F)(F)F)c1 [FLUTAMIDE] , and I need its recorded ALT.
Reply: 35.2

Query: So what does the record say about ALT for CN1C(=O)OC(C)(C)C1=O ?
Reply: 38.2

Query: Given the entry Nc1nc(N)c2nc(-c3ccccc3)c(N)nc2n1 , report its measured ALT.
Reply: 43.2

Query: Which ALT is listed for CC(=O)Oc1cc(C(C)C)c(OCCN(C)C)cc1C ?
Reply: 40.4

Query: Quick check: ALT of CCC(C)(C)C(=O)O[C@H]1C[C@@H](C)C=C2C=C[C@H](C)[C@H](CC[C@@H]3C[C@@H](O)CC(=O)O3)[C@H]21 ?
Reply: 34.4

Query: Returns the measured ALT for the input compound. Input: O=C(O)c1cccnc1
Reply: 37.2

Query: Query (compound): CCSCC[C@H](N)C(=O)O ; field requested: ALT
Reply: 34.6

Query: GET /values?readout=ALT&item= CC(C)(S)[C@@H](N)C(=O)O
Reply: 45.4

---

Species on record: Rattus norvegicus
Experiment: Open TG-GATES - Regimen: Daily Repeat
Format: toxicity, organism-based, Sprague-Dawley
Parameters: regimen Daily Repeat, gender Male, age 6 weeks
Assay context: in vivo, po, 300 mg/kg, 72 h, tissue Plasma, route gavage, dose level Middle, time 3 day
So I've got a bunch of molecules here, and I need their AST values.
Give the quantity in IU/L, number only.

Query: For O=C(O)c1cccnc1 , what is its reported AST?
Reply: 74.6

Query: I would be grateful if you could share the reported AST for CCN1CCCC1CNC(=O)c1cc(S(N)(=O)=O)ccc1OC (centres undefined) [SULPIRIDE] .
Reply: 65.8

Query: Using the record for O=C(N[C@H](CO)[C@H](O)c1ccc([N+](=O)[O-])cc1)C(Cl)Cl , report its AST.
Reply: 72.8

Query: For the molecule CC(C)(S)[C@@H](N)C(=O)O , what AST is on record?
Reply: 66.2

---

Could you please report measured Lym for the items listed next?
Organism: Rattus norvegicus
Experiment: Open TG-GATES - Regimen: Single
Type: toxicity, organism-based, Sprague-Dawley
Set-up: regimen Single, gender Male, age 6 weeks
Assay context: in vivo, po, 0 mg/kg, 3 h, tissue Blood, route gavage, dose level Control
Record the value in %, omitting the unit from your answer.

Query: Returns the measured Lym for the input compound. Input: CCC(C)(C)C(=O)O[C@H]1C[C@@H](C)C=C2C=C[C@H](C)[C@H](CC[C@@H]3C[C@@H](O)CC(=O)O3)[C@H]21
Reply: 83.6

Query: Name the recorded Lym for CCN1CCCC1CNC(=O)c1cc(S(N)(=O)=O)ccc1OC (stereo unspecified) [SULPIRIDE] .
Reply: 80.2

Query: Recorded Lym for C[C@]12CCC(=O)C=C1CC[C@@H]1[C@@H]2CC[C@@]2(C)[C@H]1CC[C@]2(C)O , please?
Reply: 74.2

Query: Name the recorded Lym for O=C(O)c1cccnc1 .
Reply: 81.2

Query: Need Lym of CC(=O)Oc1cc(C(C)C)c(OCCN(C)C)cc1C , thanks.
Reply: 76.6

Query: Entry under review: CC(=N)S [THIOACETAMIDE] . Reported Lym?
Reply: 77.6

# credit: ChEMBL document CHEMBL3885861
